System: LXRb:RXRa (NR concentration 270 nM, RXRa partner concentration 90 nM)
testMethodNotes: PBM binding z-score (relative to random genomic background probes); higher = stronger binding; sequences stand for … in GC…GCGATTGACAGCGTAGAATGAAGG
PBM binding z-score values, listed per item
// return a plain number; no unit text

A selection of reference data follows.
biosequence: AATACAGGGTCACTAGGCCAGAGTAGGTACGAAT
PBM binding z-score: 3.95

biosequence: CGTCCAAGGTTAGAGAGGTCAGTGAATGCCGAGT
PBM binding z-score: 2.48

biosequence: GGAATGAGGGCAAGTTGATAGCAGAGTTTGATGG
PBM binding z-score: 0.54

API: the following record is the query input.
**Q:** Which measured PBM binding z-score value corresponds to CGTCCAAGGTCAGCAGGTCAGGGAAAGCGACGTG ?
**A:** 3.11

###

Tested on: RARa:RXR (NR concentration 270 nM, RXRa partner concentration 90 nM)
testMethodNotes: PBM binding z-score (relative to random genomic background probes); higher = stronger binding; sequences stand for … in GC…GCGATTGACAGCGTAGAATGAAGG
Classify by measured PBM binding z-score: criterion met if it is equal to or exceeds 3, criterion not met if it is smaller.

These recorded examples may help you get a feel for the data.
biosequence: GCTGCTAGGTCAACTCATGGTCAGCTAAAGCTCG
classification: criterion not met
//
biosequence: AGTCAAAGTACATCTAGGTAACGTAAGATATGCT
classification: criterion not met
//
biosequence: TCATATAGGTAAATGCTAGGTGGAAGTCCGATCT
classification: criterion not met
//
biosequence: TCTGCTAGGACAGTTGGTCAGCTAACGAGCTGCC
classification: criterion not met
//
biosequence: ACTCTGAGGACAAAGGTCAGAGCTACGCCAGTGA
classification: criterion met
//
biosequence: GCAGACAGGTGAAACGCAGGTAACTCGGGGTGGC
classification: criterion not met
//
biosequence: TAGAGTAGGTTAGGGGCATTCAGAATGGCGTCGA
classification: criterion not met
//
biosequence: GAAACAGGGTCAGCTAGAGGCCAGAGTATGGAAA
classification: criterion met
//
biosequence: ACTCGGAGGACAAAGATCAGAGCTACGCCAGTGA
classification: criterion not met
//
biosequence: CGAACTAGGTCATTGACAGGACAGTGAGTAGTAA
classification: criterion not met

Below: the item to evaluate.
**Q:** Quick check, PBM binding z-score >= 3? GCTAGTTGGTAAGTAAAAGGTCACACACCGGTCG
**A:** criterion met

###

Reported values of PBM binding z-score for individual entries
Tested on: PPARg:RXRa 90nM:30nM, anti-RXR (NR concentration 90 nM, RXRa partner concentration 30 nM)
testMethodNotes: PBM binding z-score (relative to random genomic background probes); higher = stronger binding; sequences stand for … in GC…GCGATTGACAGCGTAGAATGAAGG
Enter the number alone.

biosequence: ATCTAAAGGTCGAGGTGAGTATAGAGAAAGGGAA
number: 3.16

**Q:** # query: PBM binding z-score of entry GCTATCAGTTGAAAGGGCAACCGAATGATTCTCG
**A:** 2.69

**Q:** If you can, please state the reported PBM binding z-score value of CCTGCTAGGTCATGGGCAGCTAATCTACAGTATG .
**A:** 1.97

**Q:** Give the measured PBM binding z-score of AGAATGAGGTTATACGTCGATCAGGGAAGAAAGT .
**A:** 2.25

**Q:** Please give the measured PBM binding z-score for this sequence: ATCTCTAGTTAAAAGTTCAGTGAATCCCGAGGAT
**A:** 3.49

**Q:** What value of PBM binding z-score has been recorded for this entry: ATCGAAAGGTGGTGAGGTGAGTATACAGAAAGGC
**A:** 0.438

**Q:** What value of PBM binding z-score has been recorded for this entry: CGACAAAGTTCAAGGTAACGTAACAGAAAGCAGC
**A:** 3.46

**Q:** Can you look up the measured PBM binding z-score of ACTAGCAGCCCAAGGGTCACTCAAGATTAGTCCG for me?
**A:** 3.21

Values were extracted from the supplement of paper PMC6555819.
